# studySystem: human β2-adrenergic receptor (Homo sapiens)
# Construct: expressed in transfected cells; host or cells: CHO (Chinese hamster ovary) cells, pcDNA3
# Sequence (P07550 whole entry): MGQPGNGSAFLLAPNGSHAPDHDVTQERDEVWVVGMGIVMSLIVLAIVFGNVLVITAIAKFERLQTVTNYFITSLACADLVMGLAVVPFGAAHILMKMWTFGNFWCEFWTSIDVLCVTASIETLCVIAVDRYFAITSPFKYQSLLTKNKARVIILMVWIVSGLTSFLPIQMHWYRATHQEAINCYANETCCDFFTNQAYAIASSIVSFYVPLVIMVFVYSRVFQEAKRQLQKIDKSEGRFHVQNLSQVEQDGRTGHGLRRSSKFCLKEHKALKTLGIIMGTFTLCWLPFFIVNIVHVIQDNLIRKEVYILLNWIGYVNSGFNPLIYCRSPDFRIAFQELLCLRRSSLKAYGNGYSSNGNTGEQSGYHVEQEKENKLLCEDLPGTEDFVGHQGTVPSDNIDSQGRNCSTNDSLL
# protocolText: Test Case 3-B: human β2-adrenergic receptor agonist activity
# Format: cell-based
# conditionsUsed: read-out: β2 receptor I.A.
endpointLabel: Emax (%)
Give the value, in units of %, as a plain number.

{"lineNotation": "CC(C)c1n[nH]c2cc(OCCNC[C@H](O)c3cccc(NS(=O)(=O)c4cccc(N)c4)c3)ccc12", "Emax (%)": 3}
{"lineNotation": "CCc1n[nH]c2cc(OCCNC[C@H](O)c3cccc(NS(=O)(=O)C4CC4)c3)ccc12", "Emax (%)": -1}
{"lineNotation": "O=S(=O)(Nc1cccc([C@@H](O)CNCCOc2ccc3c(Cl)n[nH]c3c2)c1)C1CC1", "Emax (%)": 15}

// next item, Emax requested
Which Emax value is on record for COc1n[nH]c2cc(OCCNC[C@H](O)c3cccc(NS(=O)(=O)c4cccnc4)c3)ccc12 ?
5

====

# studySystem: human β3-adrenergic receptor (Homo sapiens, UniProt P13945)
# Construct: A full-length human β3 gene is obtained from a human genomic library (made by Clontech) using this as the probe; expressed in transfected cells; host or cells: CHO (Chinese hamster ovary) cells, pcDNA3
# Sequence (P13945 whole entry): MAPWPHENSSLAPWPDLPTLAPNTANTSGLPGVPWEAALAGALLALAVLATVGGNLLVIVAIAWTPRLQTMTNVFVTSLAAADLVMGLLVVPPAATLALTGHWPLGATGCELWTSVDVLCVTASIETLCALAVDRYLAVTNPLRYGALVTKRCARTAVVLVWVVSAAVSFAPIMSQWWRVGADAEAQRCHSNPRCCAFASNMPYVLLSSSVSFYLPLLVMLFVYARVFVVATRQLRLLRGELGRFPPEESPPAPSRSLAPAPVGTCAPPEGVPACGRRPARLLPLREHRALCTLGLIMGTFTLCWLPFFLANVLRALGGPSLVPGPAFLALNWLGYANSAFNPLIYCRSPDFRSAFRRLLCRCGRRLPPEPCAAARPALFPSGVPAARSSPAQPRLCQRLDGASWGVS
# protocolText: Test Case 1-B: human β3-adrenergic receptor agonist activity (cAMP-Screen, 96-well)
# Format: cell-based
# conditionsUsed: 0.5 h; read-out: β3 receptor I.A.
endpointLabel: Emax (%)
Respond numerically; units are % and should not be typed.

# annotated cases, reported Emax shown
{"molecule": "COc1n[nH]c2cc(OCCNC[C@H](O)c3cccc(NS(=O)(=O)c4cccc(Cl)c4)c3)ccc12 [ex13]", "Emax [%]": 82}
{"molecule": "CCc1n[nH]c2cc(OCCNC[C@H](O)c3cccc(NS(=O)(=O)c4cccnc4)c3)ccc12 [ex121]", "Emax [%]": 53}
{"molecule": "Cc1n[nH]c2cc(OCCNC[C@H](O)c3cccc(NS(=O)(=O)c4ccc(N)cc4)c3)ccc12 [ex54]", "Emax [%]": 48}
{"molecule": "Cc1n[nH]c2cc(OCCNC[C@H](O)c3cccc(NS(=O)(=O)c4cccc(OC(F)F)c4)c3)ccc12 [ex66]", "Emax [%]": 88}

Query (molecule): Cc1n[nH]c2cc(OCCNC[C@H](O)c3cccc(NS(=O)(=O)c4cn[nH]c4)c3)ccc12 [ex82] ; field requested: Emax
71

Record request: Emax value, item COc1n[nH]c2cc(OCCNC[C@H](O)c3cccc(NS(=O)(=O)c4cccnc4)c3)ccc12 [ex12]
52

Which Emax reading was recorded for the molecule Nc1cccc(S(=O)(=O)Nc2cccc([C@@H](O)CNCCOc3ccc4c(Cl)n[nH]c4c3)c2)c1 [ex153] ?
95

Given the entry O=S(=O)(Nc1cccc([C@@H](O)CNCCOc2ccc3c(C4CC4)n[nH]c3c2)c1)C1CC1 [ex212] , report its measured Emax.
95

====

# studySystem: human β1-adrenergic receptor (Homo sapiens, UniProt P08588)
# Construct: expressed in transfected cells; host or cells: CHO (Chinese hamster ovary) cells, pcDNA3
# Sequence (P08588 whole entry): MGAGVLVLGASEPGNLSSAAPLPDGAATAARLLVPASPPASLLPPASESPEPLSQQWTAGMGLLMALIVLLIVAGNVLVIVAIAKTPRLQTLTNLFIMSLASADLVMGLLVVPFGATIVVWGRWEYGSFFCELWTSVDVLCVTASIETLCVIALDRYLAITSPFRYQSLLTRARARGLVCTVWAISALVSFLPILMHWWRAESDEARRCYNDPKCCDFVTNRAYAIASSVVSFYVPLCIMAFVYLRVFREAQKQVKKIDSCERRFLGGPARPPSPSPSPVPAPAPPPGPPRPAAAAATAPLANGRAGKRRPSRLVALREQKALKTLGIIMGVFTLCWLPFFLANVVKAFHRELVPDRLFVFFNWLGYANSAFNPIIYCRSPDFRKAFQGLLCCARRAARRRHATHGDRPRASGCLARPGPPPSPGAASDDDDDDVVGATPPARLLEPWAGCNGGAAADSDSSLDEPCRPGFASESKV
# protocolText: Test Case 2-B: human β1-adrenergic receptor agonist activity
# Assay type: cell-based
# conditionsUsed: read-out: β1 receptor I.A.
endpointLabel: Emax (%)
Please give a number only; it is taken to be in %.

{"lineNotation": "Nc1cccc(S(=O)(=O)Nc2cccc([C@@H](O)CNCCOc3ccc4c(Cl)n[nH]c4c3)c2)c1", "studySystem": "human β1-adrenergic receptor (Homo sapiens, UniProt P08588)", "Emax (%)": 12}
{"lineNotation": "CNc1cccc(S(=O)(=O)Nc2cccc([C@@H](O)CNCCOc3ccc4c(C)n[nH]c4c3)c2)c1", "studySystem": "human β1-adrenergic receptor (Homo sapiens, UniProt P08588)", "Emax (%)": 15}
{"lineNotation": "Cc1n[nH]c2cc(OCCNC[C@H](O)c3cccc(NS(=O)(=O)c4ccccc4O)c3)ccc12", "studySystem": "human β1-adrenergic receptor (Homo sapiens, UniProt P08588)", "Emax (%)": 9}
{"lineNotation": "COc1n[nH]c2cc(OCCNC[C@H](O)c3cccc(NS(=O)(=O)c4ccsc4)c3)ccc12", "studySystem": "human β1-adrenergic receptor (Homo sapiens, UniProt P08588)", "Emax (%)": 3}
{"lineNotation": "Cc1n[nH]c2cc(OCCNC[C@H](O)c3cccc(NS(=O)(=O)c4ccccc4F)c3)ccc12", "studySystem": "human β1-adrenergic receptor (Homo sapiens, UniProt P08588)", "Emax (%)": 16}

Alright, here's another compound for you.
What is its Emax for human β1-adrenergic receptor (Homo sapiens, UniProt P08588)? Entry: O=S(=O)(Nc1cccc([C@@H](O)CNCCOc2ccc3c(C(F)(F)F)n[nH]c3c2)c1)C1CC1
1

====

# studySystem: human β3-adrenergic receptor (Homo sapiens, UniProt P13945)
# Construct: A full-length human β3 gene is obtained from a human genomic library (made by Clontech) using this as the probe; expressed in transfected cells; host or cells: CHO (Chinese hamster ovary) cells, pcDNA3
# protocolText: Test Case 1-B: human β3-adrenergic receptor agonist activity (cAMP-Screen, 96-well)
# Type: cell-based
# conditionsUsed: Test Case 1-B; maximum response of isoproterenol = 100%
Below, each of the molecules is paired with its reported β3 receptor I.A. value.
Numeric only. Scale: %

Before answering, review these 3 worked examples.
{"lineNotation": "Cc1n[nH]c2cc(OCCNC[C@H](O)c3cccc(NS(=O)(=O)c4cc(F)c(F)c(F)c4)c3)ccc12", "β3 receptor I.A. / %": 59}
{"lineNotation": "COc1n[nH]c2cc(OCCNC[C@H](O)c3cccc(NS(=O)(=O)C4CC4)c3)ccc12", "β3 receptor I.A. / %": 72}
{"lineNotation": "O=S(=O)(Nc1cccc([C@@H](O)CNCCOc2ccc3c(C4CC4)n[nH]c3c2)c1)C1CC1", "β3 receptor I.A. / %": 65}

What value of β3 receptor I.A. has been recorded for this entry: Cc1n[nH]c2cc(OCCNC[C@H](O)c3cccc(NS(=O)(=O)c4cccnc4F)c3)ccc12
80

Form field: reported β3 receptor I.A. of COc1n[nH]c2cc(OCCNC[C@H](O)c3cccc(NS(=O)(=O)c4cccc(N)c4)c3)ccc12
76

Find the recorded β3 receptor I.A. belonging to COc1n[nH]c2cc(OCCNC[C@H](O)c3cccc(NS(=O)(=O)c4cccc(Cl)c4)c3)ccc12 and report it.
83

Recorded β3 receptor I.A. for COc1n[nH]c2cc(OCCNC[C@H](O)c3cccc(NS(=O)(=O)c4cccnc4)c3)ccc12 , please?
58

So what does the record say about β3 receptor I.A. for COc1cccc(S(=O)(=O)Nc2cccc([C@@H](O)CNCCOc3ccc4c(OC)n[nH]c4c3)c2)c1 ?
65

====

Reported β2 receptor % of Control Agonist Response by item:
# studySystem: human β2-adrenergic receptor (Homo sapiens)
# Construct: expressed in transfected cells; host or cells: CHO (Chinese hamster ovary) cells, pcDNA3
# protocolText: Test Case 3-C: human β2-adrenergic receptor agonist activity (Cerep cellular functional GPCR, beta 2)
# Assay type: cell-based
# conditionsUsed: concentration 10 μM, isoproterenol = 100%
Use % as the unit, but write only the number.

Some solved cases for reference:
{"compound": "O=S(=O)(Nc1cccc([C@@H](O)CNCCOc2ccc3c(C(F)(F)F)n[nH]c3c2)c1)c1cn[nH]c1 [ex198]", "quantitativeResult": "−0.5"}
{"compound": "CCc1n[nH]c2cc(OCCNC[C@H](O)c3cccc(NS(=O)(=O)c4ccccc4F)c3)ccc12 [ex128]", "quantitativeResult": 0.3}
{"compound": "Nc1ccc(F)c(S(=O)(=O)Nc2cccc([C@@H](O)CNCCOc3ccc4c(Cl)n[nH]c4c3)c2)c1 [ex242]", "quantitativeResult": "−0.2"}
{"compound": "Cc1n[nH]c2cc(OCCNC[C@H](O)c3cccc(NS(=O)(=O)c4cc(F)ccc4F)c3)ccc12 [ex72]", "quantitativeResult": 1.8}
{"compound": "Cc1n[nH]c2cc(OCCNC[C@H](O)c3cccc(NS(=O)(=O)c4cc(F)c(F)cc4F)c3)ccc12 [ex85]", "quantitativeResult": 1.0}

Report β2 receptor % of Control Agonist Response for Cc1n[nH]c2cc(OCCNC[C@H](O)c3cccc(NS(=O)(=O)c4ccc(Cl)c(N)c4)c3)ccc12 [ex7] tested on human β2-adrenergic receptor (Homo sapiens).
3.7

====

# studySystem: human β3-adrenergic receptor (Homo sapiens, UniProt P13945)
# Construct: A full-length human β3 gene is obtained from a human genomic library (made by Clontech) using this as the probe; expressed in transfected cells; host or cells: CHO (Chinese hamster ovary) cells, pcDNA3
# protocolText: Test Case 1-B: human β3-adrenergic receptor agonist activity (cAMP-Screen, 96-well)
# Type: cell-based
# conditionsUsed: 0.5 h; read-out: β3 receptor I.A.
# Experimental: Measurement of Human β3-Adrenergic Receptor Agonist Activity The human β3-adrenergic receptor agonist activity is measured using CHO (Chinese hamster ovary) cells transfected by a human β3 gene inserted in pcDNA3 (Invitrogen). […] A full-length human β3 gene is obtained from a human genomic library (made by Clontech) using this as the probe. These cells are cultured in Ham's F-12 medium containing 10% fetal calf serum and 400 μg/mL genectin (Invitrogen). […]
endpointLabel: Emax
Note: state the figure and append the unit.

Example cases with answers are listed next.
{"lineNotation": "O=S(=O)(Nc1cccc([C@@H](O)CNCCOc2ccc3c(OC(F)F)n[nH]c3c2)c1)c1ccccc1F", "result": "75%"}
{"lineNotation": "CCc1n[nH]c2cc(OCCNC[C@H](O)c3cccc(NS(=O)(=O)CC(F)(F)F)c3)ccc12", "result": "34%"}
{"lineNotation": "CCc1n[nH]c2cc(OCCNC[C@H](O)c3cccc(NS(=O)(=O)c4cccc(OC)c4)c3)ccc12", "result": "32%"}
{"lineNotation": "Cc1n[nH]c2cc(OCCNC[C@H](O)c3cccc(NS(=O)(=O)c4cc(N)ccc4F)c3)ccc12", "result": "64%"}
{"lineNotation": "COc1n[nH]c2cc(OCCNC[C@H](O)c3cccc(NS(=O)(=O)c4cc(N)ccc4F)c3)ccc12", "result": "84%"}
{"lineNotation": "COc1n[nH]c2cc(OCCNC[C@H](O)c3cccc(NS(=O)(=O)c4ccccc4F)c3)ccc12", "result": "90%"}
{"lineNotation": "Cc1n[nH]c2cc(OCCNC[C@H](O)c3cccc(NS(=O)(=O)c4ccccn4)c3)ccc12", "result": "65%"}
{"lineNotation": "Cc1n[nH]c2cc(OCCNC[C@H](O)c3cccc(NS(=O)(=O)c4ccccc4F)c3)ccc12", "result": "113%"}
{"lineNotation": "O=S(=O)(Nc1cccc([C@@H](O)CNCCOc2ccc3c(Cl)n[nH]c3c2)c1)C1CC1", "result": "104%"}
{"lineNotation": "CCc1n[nH]c2cc(OCCNC[C@H](O)c3cccc(NS(=O)(=O)c4cccc(Cl)c4)c3)ccc12", "result": "47%"}

Return reported Emax; argument: Cc1n[nH]c2cc(OCCNC[C@H](O)c3cccc(NS(=O)(=O)CC(F)(F)F)c3)ccc12
48%

Using the record for COc1n[nH]c2cc(OCCNC[C@H](O)c3cccc(NS(=O)(=O)c4cccs4)c3)ccc12 , report its Emax.
109%

May I ask what Emax has been recorded for CC(C)c1n[nH]c2cc(OCCNC[C@H](O)c3cccc(NS(=O)(=O)c4cccc(N)c4)c3)ccc12 ?
124%

Emax lookup needed for COc1n[nH]c2cc(OCCNC[C@H](O)c3cccc(NS(=O)(=O)c4cccnc4F)c3)ccc12 , thanks.
41%

Param item = O=S(=O)(Nc1cccc([C@@H](O)CNCCOc2ccc3c(OC(F)F)n[nH]c3c2)c1)c1cn[nH]c1 ; retrieve measured Emax.
108%

Consider the compound COc1n[nH]c2cc(OCCNC[C@H](O)c3cccc(NS(=O)(=O)c4ccsc4)c3)ccc12 and give its measured Emax.
115%
